# credit: patent US12486274B2

assay-target: Full length human recombinant PIKFYVE (Homo sapiens (Human))
Sequence (Q9Y2I7 whole entry): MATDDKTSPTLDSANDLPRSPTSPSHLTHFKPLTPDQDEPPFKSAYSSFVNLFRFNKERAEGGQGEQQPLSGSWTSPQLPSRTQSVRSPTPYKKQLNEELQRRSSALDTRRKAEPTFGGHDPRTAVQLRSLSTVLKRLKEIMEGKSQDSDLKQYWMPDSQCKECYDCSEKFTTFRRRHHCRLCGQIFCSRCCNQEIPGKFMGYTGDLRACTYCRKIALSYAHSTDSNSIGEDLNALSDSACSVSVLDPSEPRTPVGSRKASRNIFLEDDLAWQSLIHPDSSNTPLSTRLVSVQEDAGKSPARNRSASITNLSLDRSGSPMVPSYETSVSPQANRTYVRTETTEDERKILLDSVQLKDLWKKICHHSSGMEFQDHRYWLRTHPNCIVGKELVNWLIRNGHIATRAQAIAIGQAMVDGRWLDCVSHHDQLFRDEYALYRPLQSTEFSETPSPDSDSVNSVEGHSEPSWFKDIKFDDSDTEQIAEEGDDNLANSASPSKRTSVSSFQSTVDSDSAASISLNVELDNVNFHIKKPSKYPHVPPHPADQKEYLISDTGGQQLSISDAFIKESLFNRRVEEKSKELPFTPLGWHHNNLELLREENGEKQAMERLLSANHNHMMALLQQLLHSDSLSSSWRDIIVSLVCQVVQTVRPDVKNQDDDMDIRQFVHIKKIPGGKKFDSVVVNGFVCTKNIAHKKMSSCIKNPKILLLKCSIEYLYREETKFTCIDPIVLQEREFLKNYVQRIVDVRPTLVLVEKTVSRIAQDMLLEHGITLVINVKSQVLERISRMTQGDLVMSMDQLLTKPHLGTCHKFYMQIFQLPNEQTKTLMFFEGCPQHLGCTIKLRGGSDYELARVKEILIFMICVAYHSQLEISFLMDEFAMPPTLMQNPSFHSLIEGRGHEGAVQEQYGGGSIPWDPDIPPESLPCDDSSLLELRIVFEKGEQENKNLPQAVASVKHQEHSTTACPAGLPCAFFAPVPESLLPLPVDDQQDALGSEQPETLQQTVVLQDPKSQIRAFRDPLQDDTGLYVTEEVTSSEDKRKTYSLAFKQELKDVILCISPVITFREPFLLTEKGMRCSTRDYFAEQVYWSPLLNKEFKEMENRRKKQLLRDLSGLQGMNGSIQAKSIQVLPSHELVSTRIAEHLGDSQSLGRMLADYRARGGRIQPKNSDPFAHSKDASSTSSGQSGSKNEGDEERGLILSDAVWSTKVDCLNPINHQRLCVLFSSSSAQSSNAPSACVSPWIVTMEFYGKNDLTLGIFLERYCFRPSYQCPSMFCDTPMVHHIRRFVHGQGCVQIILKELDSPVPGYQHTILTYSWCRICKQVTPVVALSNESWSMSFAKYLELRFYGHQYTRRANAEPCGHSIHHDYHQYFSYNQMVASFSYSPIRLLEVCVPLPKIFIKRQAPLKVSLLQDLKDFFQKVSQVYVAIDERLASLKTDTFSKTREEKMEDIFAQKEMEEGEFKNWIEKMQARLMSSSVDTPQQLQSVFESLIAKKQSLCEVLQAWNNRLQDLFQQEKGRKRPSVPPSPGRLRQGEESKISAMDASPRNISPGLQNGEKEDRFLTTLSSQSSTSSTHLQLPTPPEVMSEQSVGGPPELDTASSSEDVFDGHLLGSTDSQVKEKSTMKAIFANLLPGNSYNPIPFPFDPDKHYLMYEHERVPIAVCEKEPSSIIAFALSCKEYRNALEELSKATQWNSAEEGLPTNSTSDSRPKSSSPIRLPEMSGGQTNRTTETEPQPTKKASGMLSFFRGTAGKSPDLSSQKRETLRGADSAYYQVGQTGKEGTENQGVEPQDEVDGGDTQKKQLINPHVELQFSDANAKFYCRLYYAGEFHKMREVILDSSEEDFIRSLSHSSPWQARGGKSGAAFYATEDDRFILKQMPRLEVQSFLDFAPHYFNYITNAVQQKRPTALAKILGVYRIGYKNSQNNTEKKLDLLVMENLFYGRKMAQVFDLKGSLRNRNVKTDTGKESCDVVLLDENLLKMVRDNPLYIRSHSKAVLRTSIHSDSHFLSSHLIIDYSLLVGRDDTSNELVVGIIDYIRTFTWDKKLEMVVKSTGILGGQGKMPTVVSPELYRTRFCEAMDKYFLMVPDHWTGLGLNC
assay-info: Inhibition of PIKfyve (microfluidic electrophoresis kinase assay)
test-conditions: 2 nM enzyme, PI3P/PS substrate, 3 h at room temperature, 12 concentrations
Method: Full length human recombinant PIKFYVE expressed in baculovirus expression system as N-terminal GST-fusion protein (265 kDa) was obtained from Carna Biosciences (Kobe, Japan). […] The kinase reactions were assembled in 384-well plates (Greiner) in a total volume of 20 mL as follows. […] Terminated plates were analyzed on a microfluidic electrophoresis instrument (Caliper LabChip® 3000, Caliper Life Sciences/Perkin Elmer). […]
metric-name: IC50 (nM)

Known IC50 results, listed for orientation:
> print(dat)
                                smiles.text  metric.name  value.unit  measurement
1  Cc1cccc(-c2ccn(-c3cc(N4CCOCC4)n4nc(-c5cccnc5)cc4n3)n2)c1         IC50          nM          6.8
2  Cc1cccc(-c2ccn(-c3cc(N4CCOCC4)n4nc(C(=O)NC(C)C)cc4n3)n2)c1         IC50          nM         25.7

[A] Cc1cccc(-c2ccn(-c3cc(N4CCOCC4)n4nc(C(=O)NCCN(C)C)cc4n3)n2)c1
[B] Cc1ccc(-c2cc(Nc3cc(N4CCOCC4)n4nc(-c5ccncc5)cc4n3)[nH]n2)cc1
[C] Cc1cccc(-c2ccn(-c3cc(N4CCOCC4)n4nc(C(=O)NCCCCN(C)C)cc4n3)n2)c1
[D] c1ccc(-c2ccn(-c3cc(N4CCOCC4)n4nc(-c5nccs5)cc4n3)n2)cc1
[E] Cn1cc(-c2cc3nc(-n4ccc(-c5ccccc5)n4)cc(N4CCOCC4)n3n2)cn1
Qu. Ascending sort, IC50. Provide the labels, sequenced as the question asks.
Ans. C, E, D, A, B
(C: 32.4 nM, E: 62.4 nM, D: 100 nM, A: 258 nM, B: 2590 nM)
